Data origin: patent US20170190671A1

Test system: morningglory (Ipomoea coccinea)
method-description: Test C postemergence
Assay type: in vivo
measurement-context: Ipomoea, post-emergence, 336 h; Postemergence, 125 g ai/ha, scale 0 to 100; read-out: Plant response rating, Morningglory
Provide the recorded pest or weed control at 125 g/ha for the entries that follow.
Give the value, in units of %, as a plain number.

For Fc1cccc(Oc2ncc(Cl)cn2)c1Oc1ncc(Br)cn1 the molecule record lists pest or weed control at 125 g/ha as 70

For Fc1cccc(Oc2ncc(Cl)cn2)c1Oc1ccc(Cl)nc1 the molecule record lists pest or weed control at 125 g/ha as 65

For Fc1cnc(Oc2c(Br)cccc2Oc2ncc(Cl)cn2)nc1 the molecule record lists pest or weed control at 125 g/ha as 85

For N#Cc1cccc(Oc2ncc(Cl)cn2)c1Oc1ncc(Cl)cn1 the molecule record lists pest or weed control at 125 g/ha as 90

For Fc1cccc(Oc2ncc(Cl)cn2)c1Oc1ncc(C(F)(F)F)cn1 the molecule record lists pest or weed control at 125 g/ha as 80

For N#Cc1cccc(Oc2ncc(Cl)cn2)c1Oc1ccc(Cl)cc1 the molecule record lists pest or weed control at 125 g/ha as 70

For Fc1ccc(F)c(Oc2ncc(Cl)cn2)c1Oc1ncc(Cl)cn1 the molecule record lists pest or weed control at 125 g/ha as 95

For N#Cc1cccc(Oc2ncc(Cl)cn2)c1Oc1ncc(Br)cn1 the molecule record lists pest or weed control at 125 g/ha as 95

###

Provide the recorded plant injury at 125 g/ha for the entries that follow.
Tested on: wheat (Triticum aestivum)
method-description: Test A postemergence
Assay type: in vivo
measurement-context: Triticum aestivum, post-emergence, 240 h, 125 g ai/ha, 0 to 100 scale, read-out: Plant response rating, Wheat
Reply with the number, then its unit.

For N#Cc1cccc(Oc2ncc(Br)cn2)c1Oc1ccc(Br)cn1 the compound record lists plant injury at 125 g/ha as 20%

For N#Cc1cccc(Oc2ncc(Cl)cn2)c1Oc1ccc(Br)cn1 the compound record lists plant injury at 125 g/ha as 10%

For N#Cc1cccc(Oc2ncc(Cl)cn2)c1Oc1ncc(Cl)cn1 the compound record lists plant injury at 125 g/ha as 60%

For N#Cc1cccc(Oc2ncc(Cl)cn2)c1Oc1ccc(Cl)cc1 the compound record lists plant injury at 125 g/ha as 10%

For N#Cc1cccc(Oc2ncc(Cl)cn2)c1Oc1cccnc1 the compound record lists plant injury at 125 g/ha as 0%

For N#Cc1cccc(Oc2ncc(Br)cn2)c1Oc1ncc(Cl)cn1 the compound record lists plant injury at 125 g/ha as 40%

For Fc1cccc(Oc2ncc(C(F)(F)F)cn2)c1Oc1ncc(Cl)cn1 the compound record lists plant injury at 125 g/ha as 80%

For N#Cc1cccc(Oc2ncc(Br)cn2)c1Oc1ccc(Cl)cn1 the compound record lists plant injury at 125 g/ha as 50%

For Fc1cccc(Oc2ncc(Cl)cn2)c1Oc1ncc(C(F)(F)F)cn1 the compound record lists plant injury at 125 g/ha as 80%

For N#Cc1cccc(Oc2ncc(Cl)cn2)c1Oc1ccc(Cl)cn1 the compound record lists plant injury at 125 g/ha as 20%

###

Test system: kochia (Kochia scoparia)
method-description: Test C postemergence
Format: in vivo
measurement-context: Bassia scoparia, post-emergence; Postemergence, 31 g ai/ha, scale 0 to 100; read-out: Plant response rating, Kochia
recorded-endpoint: pest or weed control at 31 g/ha (%)
Give the value, in units of %, as a plain number.

Tested system kochia (Kochia scoparia); pest or weed control at 31 g/ha recorded for Fc1cnc(Oc2c(Cl)cccc2Oc2ncc(Cl)cn2)nc1 was 30

Tested system kochia (Kochia scoparia); pest or weed control at 31 g/ha recorded for N#Cc1cccc(Oc2ncc(Cl)cn2)c1Oc1ncc(Br)cn1 was 60

Tested system kochia (Kochia scoparia); pest or weed control at 31 g/ha recorded for FC(F)c1cccc(Oc2ncc(Cl)cn2)c1Oc1ncc(Cl)cn1 was 80

Tested system kochia (Kochia scoparia); pest or weed control at 31 g/ha recorded for Fc1cccc(Oc2ncc(Cl)cn2)c1Oc1ncc(Cl)cn1 was 90

Tested system kochia (Kochia scoparia); pest or weed control at 31 g/ha recorded for N#Cc1cccc(Oc2ncc(Cl)cn2)c1Oc1ccc(Cl)cc1 was 95

Tested system kochia (Kochia scoparia); pest or weed control at 31 g/ha recorded for N#Cc1cccc(Oc2ncc(Cl)cn2)c1Oc1ncc(C(F)(F)F)cn1 was 90

###

Provide the recorded pest or weed control at 16 g/ha for the entries that follow.
Tested on: lambsquarters (Chenopodium album)
method-description: Test C postemergence
Format: in vivo
measurement-context: Chenopodium album, post-emergence, 336 h; Postemergence, 16 g ai/ha, scale 0 to 100; read-out: Plant response rating, Lambsquarters
Give the value, in units of %, as a plain number.

Tested system lambsquarters (Chenopodium album); pest or weed control at 16 g/ha recorded for FC(F)c1cccc(Oc2ncc(Cl)cn2)c1Oc1ncc(Cl)cn1 was 55

Tested system lambsquarters (Chenopodium album); pest or weed control at 16 g/ha recorded for Fc1cccc(Oc2ncc(C(F)(F)F)cn2)c1Oc1ncc(Cl)cn1 was 80

Tested system lambsquarters (Chenopodium album); pest or weed control at 16 g/ha recorded for Fc1cccc(Oc2ncc(Cl)cn2)c1Oc1ncc(C(F)(F)F)cn1 was 60

Tested system lambsquarters (Chenopodium album); pest or weed control at 16 g/ha recorded for Fc1cccc(Oc2ncc(Cl)cn2)c1Oc1ncc(Cl)cn1 was 15

###

System: yellow nutsedge (Cyperus esculentus)
method-description: Test C postemergence
Format: in vivo
measurement-context: Cyperus, post-emergence, 336 h; Postemergence, 62 g ai/ha, scale 0 to 100; read-out: Plant response rating, Nutsedge, Yellow
Provide the recorded pest or weed control at 62 g/ha for the entries that follow.
Give the value, in units of %, as a plain number.

For Fc1cnc(Oc2c(Cl)cccc2Oc2ncc(Cl)cn2)nc1 [Compound 18] the molecule record lists pest or weed control at 62 g/ha as 10

For Fc1cccc(Oc2ncc(C(F)(F)F)cn2)c1Oc1ncc(Cl)cn1 [Compound 42] the molecule record lists pest or weed control at 62 g/ha as 5

For N#Cc1cccc(Oc2ncc(Cl)cn2)c1Oc1cnc(Cl)cn1 [Compound 32] the molecule record lists pest or weed control at 62 g/ha as 20

For Fc1cnc(Oc2c(F)cccc2Oc2ncc(Cl)cn2)nc1 [Compound 23] the molecule record lists pest or weed control at 62 g/ha as 0

###

Test system: ragweed (common ragweed, Ambrosia elatior)
method-description: Test A postemergence
Type: in vivo
measurement-context: 125 g ai/ha, 0 to 100 scale
recorded-endpoint: Plant response rating, Ragweed

Tested system ragweed (common ragweed, Ambrosia elatior); Plant response rating, Ragweed recorded for Fc1ccc(Oc2ccc(C(F)(F)F)cn2)c(Oc2ncc(Cl)cn2)c1 was 20

Tested system ragweed (common ragweed, Ambrosia elatior); Plant response rating, Ragweed recorded for FC(F)(F)c1cnc(Oc2c(Br)cccc2Oc2ncc(Cl)cn2)s1 was 20

Tested system ragweed (common ragweed, Ambrosia elatior); Plant response rating, Ragweed recorded for N#Cc1cccc(Oc2ncc(C(F)(F)F)cn2)c1Oc1ncc(C(F)(F)F)cn1 was 20

Tested system ragweed (common ragweed, Ambrosia elatior); Plant response rating, Ragweed recorded for N#Cc1cccc(Oc2ncc(Cl)cn2)c1Oc1ccc(C(F)(F)F)nc1 was 0

###

Provide the recorded plant injury at 125 g/ha for the entries that follow.
Test system: winter wheat (Triticum aestivum)
method-description: Test C postemergence
Format: in vivo
measurement-context: Triticum aestivum, post-emergence, 336 h; Postemergence, 125 g ai/ha, scale 0 to 100; read-out: Plant response rating, Wheat
Description: […]

For Fc1cnc(Oc2c(F)cccc2Oc2ncc(Cl)cn2)nc1 the compound record lists plant injury at 125 g/ha as 0%

For Fc1cnc(Oc2c(Br)cccc2Oc2ncc(Cl)cn2)nc1 the compound record lists plant injury at 125 g/ha as 0%

For Fc1cnc(Oc2c(F)ccc(F)c2Oc2ncc(F)cn2)nc1 the compound record lists plant injury at 125 g/ha as 0%

For N#Cc1cccc(Oc2ncc(Cl)cn2)c1Oc1ccc(Cl)cn1 the compound record lists plant injury at 125 g/ha as 0%

For Fc1cccc(Oc2ncc(Cl)cn2)c1Oc1ncc(C(F)(F)F)cn1 the compound record lists plant injury at 125 g/ha as 5%

For Fc1ccc(F)c(Oc2ncc(Cl)cn2)c1Oc1ncc(Cl)cn1 the compound record lists plant injury at 125 g/ha as 0%

###

Tested on: yellow nutsedge (Cyperus esculentus)
method-description: Test C preemergence
Type: in vivo
measurement-context: Cyperus, pre-emergence, 336 h; 62 g ai/ha, preemergence; scale 0 to 100; read-out: Plant response rating, Nutsedge, Yellow
Provide the recorded pest or weed control at 62 g/ha for the entries that follow.
Give the value, in units of %, as a plain number.

For Fc1cccc(Oc2ncc(Cl)cn2)c1Oc1ncc(C(F)(F)F)cn1 [Compound 43] the compound record lists pest or weed control at 62 g/ha as 35

For N#Cc1cccc(Oc2ncc(Cl)cn2)c1Oc1ncc(C(F)(F)F)cn1 [Compound 38] the compound record lists pest or weed control at 62 g/ha as 70

For Fc1cnc(Oc2c(F)cccc2Oc2ncc(Cl)cn2)nc1 [Compound 23] the compound record lists pest or weed control at 62 g/ha as 10

For Fc1cccc(Oc2ncc(Cl)cn2)c1Oc1ncc(Br)cn1 [Compound 27] the compound record lists pest or weed control at 62 g/ha as 0
